Listing of recorded half-life at 0.5 µM by entry.
- protocolText: Intrinsic clearance (CLint) assay, mouse liver microsomes
- Type: in vitro ADME
- measurementConditions: mouse, pooled mouse liver microsomes, pH 7.4; read-out: Microsomal t1/2 Mouse
Non-standard residues stand in square brackets, D forms with d. Residues, ends and D or L forms follow the SMILES beside them. dPhe(4-Cl) = N[C@H](Cc1ccc(Cl)cc1)C(=O)O; dOrn = NCCC[C@@H](N)C(=O)O

compound	half-life at 0.5 µM
CC(C)C[C@@H]1NC(=O)[C@H](Cc2c[nH]c3ccccc23)NC(=O)[C@@H](CCCN)NC(=O)[C@H](C)NC(=O)[C@H](C(C)C)NC(=O)[C@@H](CC(C)C)NC1=O [Compound 4c] (cyclo(A[dOrn]WL[dL]V))	> 2.31 h
CC(C)C[C@@H]1NC(=O)[C@@H](Cc2ccc(Cl)cc2)NC(=O)[C@@H](CCCN)NC(=O)[C@H](CC(N)=O)NC(=O)[C@H](C(C)C)NC(=O)[C@@H](CC(C)C)NC1=O [Compound 14c] (cyclo(L[dL]VN[dOrn][dPhe(4-Cl)]))	> 2.31 h
